# SYSTEM UNDER TEST: rat PGT (Rattus norvegicus (Rat), UniProt Q00910)
# ASSAY PROTOCOL: [3H]PGE2 uptake inhibition in MDCK cells stably transfected with rat PGT (percent inhibition and IC50)
# Format: cell-based
# CONDITION SET: 0.5 μM compound; inhibition of [3H]PGE2 uptake
EXPERIMENTAL READOUT: Inh (% of Ctl) 0.5 μM

>  <COMPOUND>
O=C(NCCOCCOCCNc1nc(Nc2ccc(O)cc2)nc(Nc2ccc(C(=O)NCc3c(F)cccc3F)cc2)n1)c1ccccc1 [compound 128]

>  <SYSTEM UNDER TEST>
rat PGT (Rattus norvegicus (Rat), UniProt Q00910)

>  <MEAS VALUE>
71.8 % of Ctl

$$$$
>  <COMPOUND>
O=C(NCCOCCOCCNc1nc(Nc2ccc(O)cc2)nc(Nc2ccc(C(=O)NCc3ccc4[nH]ccc4c3)cc2)n1)c1ccccc1 [compound 94]

>  <SYSTEM UNDER TEST>
rat PGT (Rattus norvegicus (Rat), UniProt Q00910)

>  <MEAS VALUE>
36.0 % of Ctl

$$$$
>  <COMPOUND>
O=C(NCCOCCO)c1ccc(Nc2nc(NCCOCCOCCNC(=O)c3ccccc3)nc(Nc3ccc(O)cc3)n2)cc1 [compound 18]

>  <SYSTEM UNDER TEST>
rat PGT (Rattus norvegicus (Rat), UniProt Q00910)

>  <MEAS VALUE>
21.1 % of Ctl

$$$$
>  <COMPOUND>
COC(=O)c1ccc(CNC(=O)c2ccc(Nc3nc(NCCOCCOCCNC(=O)c4ccccc4)nc(Nc4ccc(O)cc4)n3)cc2)cc1 [compound 114]

>  <SYSTEM UNDER TEST>
rat PGT (Rattus norvegicus (Rat), UniProt Q00910)

>  <MEAS VALUE>
61.4 % of Ctl

$$$$
>  <COMPOUND>
O=C(NCCOCCOCCNc1nc(Nc2ccc(O)cc2)nc(Nc2ccc(C(=O)NCc3cccc(F)c3F)cc2)n1)c1ccccc1 [compound 126]

>  <SYSTEM UNDER TEST>
rat PGT (Rattus norvegicus (Rat), UniProt Q00910)

>  <MEAS VALUE>
56.3 % of Ctl

$$$$
>  <COMPOUND>
O=C(NCCOCCOCCNc1nc(Nc2ccc(O)cc2)nc(Nc2ccc(C(=O)NCc3ccc(F)cc3)cc2)n1)c1ccccc1 [compound 99]

>  <SYSTEM UNDER TEST>
rat PGT (Rattus norvegicus (Rat), UniProt Q00910)

>  <MEAS VALUE>
61.8 % of Ctl

$$$$
>  <COMPOUND>
O=C(NCCOCCOCCNc1nc(NCCOCCOCCNC(=O)c2ccccc2)nc(Nc2ccc(O)cc2)n1)c1ccccc1 [compound 151]

>  <SYSTEM UNDER TEST>
rat PGT (Rattus norvegicus (Rat), UniProt Q00910)

>  <MEAS VALUE>
0.7 % of Ctl

$$$$
